assay: qHTS of pediatric cancer cell lines to identify multiple opportunities for drug repurposing: Confirmatory screen for OHS-50 cells (AID 1347128); details: OHS-50 osteosarcoma cells viability; series mostly up to 45.9 µM;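 further: compound exposure lasted 48 h at 37 degrees C; nearly all actives have a fitted effect of over 55% in size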
Results filed as inconclusive are left out. Active and inactive are the calls of the source. The call rests on the fitted dose curve; in most records, active means well fitted cell-killing curve with a large enough effect; inconclusive means small, poorly fitted or top-dose-only effect, or effect the other way; inactive means no such curve, though single readings can be large or run the other way.
Form entry, call: pick from True (active), False (inactive)

Identify the outcome logged in this assay for the compound shown: CC(=O)O[C@@]12CO[C@H]1C[C@H](O)[C@@]1(C)C(=O)[C@H](O)C3=C(C)[C@@H](OC(=O)C(O)[C@@H](NC(=O)OC(C)(C)C)c4ccccc4)C[C@@](O)([C@@H](OC(=O)c4ccccc4)[C@@H]21)C3(C)C (some centres not stated)
True

Identify the outcome logged in this assay for the compound shown: CNC(=O)Nc1ccc(-c2nc(N3CC4CCC(C3)O4)c3cnn(C4CCC5(CC4)OCCO5)c3n2)cc1
True

Identify the outcome logged in this assay for the compound shown: CC[C@@]1([C@@H]2O[C@@H]([C@H]3O[C@@](O)(CO)[C@H](C)C[C@H]3C)C[C@H]2C)CC[C@H]([C@]2(C)CC[C@]3(C[C@H](O)[C@@H](C)[C@@H]([C@@H](C)[C@@H](OC)[C@H](C)C(=O)O)O3)O2)O1
True

Identify the outcome logged in this assay for the compound shown: Cc1ccc([N+](=O)[O-])cc1S(=O)(=O)N(C)N=Cc1cnc2ccc(Br)cn12
True

###

experiment: Quantitative High-Throughput drug screen in 47 multiple myeloma cell lines against the NCATS MIPE library collection: XG6_PLB cell viability assay (AID 1919865); settings: XG6 myeloma viability, CellTiter-Glo ATP luminescence, 48 h; series mostly up to 45.8 µM; further: nearly all actives have a fitted effect of over 40% in size
Inconclusive results are not listed. The source made the active and inactive calls. Calls follow the shape of the dose curve; as a rule, active = well fitted cell-killing curve with a large enough effect; inconclusive = small, poorly fitted or top-dose-only effect, or effect the other way; inactive = no such curve, though single readings can be large or run the other way.
Form entry, call: pick from TRUE (active), FALSE (inactive)

Reference set (10 entries):
compound | label
COc1cc([C@@H]2c3cc4c(cc3[C@H](O)[C@H]3COC(=O)[C@@H]23)OCO4)cc(OC)c1OC | TRUE
Cc1cc(Nc2ncc3c(n2)N(C)C(=O)N(c2cc(NC(=O)c4cccc(C(F)(F)F)c4)ccc2C)C3)n(C)n1 | TRUE
CC(=O)N[C@H]1[C@@H]([C@H](O)[C@H](O)CO)OC(C(=O)O)=C[C@@H]1N=C(N)N | FALSE
CON=C(C(=O)N[C@@H]1C(=O)N2C(C(=O)O)=C(Cn3ccc(=N)n3CCO)CS[C@H]12)c1csc(N)n1 | FALSE
CC(C(C)N1CC(=O)NC(=O)C1)N1CC(=O)NC(=O)C1 (configuration not stated) | FALSE
C=CC[C@@H]1C=C(C)C[C@H](C)C[C@H](OC)[C@H]2O[C@@](O)(C(=O)C(=O)N3CCCC[C@H]3C(=O)O[C@H](C(C)=C[C@@H]3CC[C@H](O)[C@H](OC)C3)[C@@H](C)[C@@H](O)CC1=O)[C@@H](C)C[C@@H]2OC | TRUE
CC(C)(N)c1ccc(-c2nc3ccccc3nc2-c2ccccc2)cc1 | TRUE
C=CC(=O)Nc1cccc(Nc2nc(NC3CCC(N(C)C)CC3)nc3c2ncn3C(C)C)c1 (configuration not stated) | TRUE
Cn1cnc2c(F)c(Nc3ccc(Br)cc3F)c(C(=O)NOCCO)cc21 | TRUE
COC(=O)[C@@H]1CC2=CC(=O)CC[C@]2(C)[C@@]23O[C@@H]2C[C@@]2(C)[C@H](CC[C@@]24CCC(=O)O4)[C@@H]13 | FALSE

Identify the outcome logged in this assay for the compound shown: NC(=NCCCCCCN=C(N)N=C(N)Nc1ccc(Cl)cc1)N=C(N)Nc1ccc(Cl)cc1
TRUE

Identify the outcome logged in this assay for the compound shown: COc1ccc(S(=O)(=O)Nc2cc(-c3c(O)ccc4ccccc34)c(O)c3ccccc23)cc1
TRUE

Identify the outcome logged in this assay for the compound shown: CC(C)NC[C@@H](C(=O)N1CCN(c2ncnc3c2[C@H](C)C[C@H]3O)CC1)c1ccc(Cl)cc1
TRUE

###

experiment: High-throughput drug toxicity screening in the BPDCN cell line Gen2.2 (AID 1224824); details: Gen2.2 BPDCN cells; at 45.8 µM (top of the series) unless noted;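 further: cells exposed to compounds for 48 h before reading; 100% = DMSO and 0% = bortezomib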
Recorded cell viability, % of control (lower = more cytotoxic) by entry
Numbers only here, please. The scale is %.

For orientation, consider the following solved cases.
compound | measured-result
COc1cc(N2CCC(C(N)=O)CC2)ccc1Nc1nc(N)c(Cl)c(Nc2ccccc2S(=O)(=O)C(C)C)n1 | 147
CC(=O)OC[C@@H]1O[C@@H](n2ccc(=O)[nH]c2=O)[C@H](OC(C)=O)[C@H]1OC(C)=O | 154
Cn1cnc2c(F)c(Nc3ccc(Br)cc3F)c(C(=O)NOCCO)cc21 | 4.85
CN[C@@H]1C[C@H]2O[C@@](C)([C@H]1OC)n1c3ccccc3c3c4c(c5c6ccccc6n2c5c31)C(=O)N[C@H]4O | 13
C[C@]12CCC(=O)C=C1[C@@H]1CC1[C@H]1[C@H]3[C@@H]4C[C@H]4[C@@]4(CCC(=O)O4)[C@@]3(C)CC[C@H]12 (stereo partly specified) | 75.3
C#Cc1cccc(Nc2ncnc3cc(OCCOC)c(OCCO)cc23)c1 | 38.2
Cn1cc(-c2cnn3c(N)c(Br)c([C@H]4CCCNC4)nc23)cn1 | 8.78
Cn1cnc(=N)c2[nH]cnc21 | 128
N=c1ccn2c(n1)O[C@H]1[C@@H](O)[C@@H](CO)O[C@H]12 | 70.9
c1coc(CNc2ncnc3nc[nH]c23)c1 | 90.9

Let me know recorded cell viability, % of control (lower = more cytotoxic) for CC(=O)N[C@@H]1[C@H](O[C@@H]2c3ccc(c(Cl)c3)Oc3cc4cc(c3O[C@H]3O[C@H](CO)[C@@H](O)[C@H](O)[C@H]3NC(=O)CCCCCCCC(C)C)Oc3ccc(cc3Cl)C[C@H]3NC(=O)[C@H](N)c5ccc(O)c(c5)Oc5cc(O)cc(c5)[C@H](NC3=O)C(=O)N[C@H]4C(=O)N[C@H]3C(=O)N[C@@H]2C(=O)N[C@@H](C(=O)O)c2cc(O)cc(O[C@H]4O[C@H](CO)[C@@H](O)[C@H](O)[C@H]4O)c2-c2cc3ccc2O)O[C@H](CO)[C@@H](O)[C@@H]1O , thanks.
82.7

Let me know recorded cell viability, % of control (lower = more cytotoxic) for O=C(O)C=Cc1ccc(Cn2ccnc2)cc1 , thanks.
243

Let me know recorded cell viability, % of control (lower = more cytotoxic) for CCCCCCCCc1ccc(CCC(N)(CO)CO)cc1 , thanks.
4.54

Let me know recorded cell viability, % of control (lower = more cytotoxic) for O=C(NC1CC1)c1cccc(-c2ccc3c(NC(=O)C4CC4)n[nH]c3c2)c1 , thanks.
224

Let me know recorded cell viability, % of control (lower = more cytotoxic) for Cc1cnc(Nc2ccc(N3CCN(C)CC3)cc2)nc1Nc1cccc(S(=O)(=O)NC(C)(C)C)c1 , thanks.
2.75

Let me know recorded cell viability, % of control (lower = more cytotoxic) for Cc1cc(Nc2ncc3c(n2)N(C)C(=O)N(c2cc(NC(=O)c4cccc(C(F)(F)F)c4)ccc2C)C3)n(C)n1 , thanks.
11.1

###

Assay: Quantitative High-Throughput drug screen in 47 multiple myeloma cell lines against the NCATS MIPE library collection: KHM11_PLB cell viability assay (AID 1918962); further: nearly all actives have a fitted effect of over 35% in size
Conditions: KHM11 myeloma cell viability, CellTiter-Glo ATP luminescence, 48 h; series mostly up to 45.8 µM
Excerpt: PI: Beverly A. Mock Ph.D. Laboratory of Cancer Biology and Genetics, Center for Cancer Research, National Cancer Institute, National Institute of Health, Bethesda, Maryland […] 5; Detector; 425V; Luminescence; Viewlux PerkinElmer. […] 1. […] Briefly, the corresponding myeloma cell lines were screened in 1,536-well plates with 500 cells, 5-uL per well for inhibition of cell viability (assessed by measuring ATP levels with CellTiterGlo). […]
Records with an inconclusive call do not appear. Active and inactive are the calls of the source. The call rests on the fitted dose curve; in most records, active means well fitted cell-killing curve with a large enough effect; inconclusive means small, poorly fitted or top-dose-only effect, or effect the other way; inactive means no such curve, though single readings can be large or run the other way.
Form entry, call: pick from active, inactive

Reference set (5 entries):
compound | label
COc1cc([C@@H]2c3cc4c(cc3[C@H](O)[C@H]3COC(=O)[C@@H]23)OCO4)cc(OC)c1OC | active
Cn1cc(C=CC(=O)c2cccc(F)c2)cc1C=CC(=O)NO | inactive
COc1ccc(C=Cc2cc(OC)c(OC)c(OC)c2)cc1NC(=O)[C@H](N)CO | inactive
O=C1CSC(=O)N1C(CCc1ccncc1)COc1ccc(-c2cccc([N+](=O)[O-])c2)cc1 (configuration not stated) | active
C[C@H](NC(=O)C(C#N)=Cc1cccc(Br)n1)c1ccccc1 | active

Identify the outcome logged in this assay for the compound shown: Nc1nc2c(c(=O)[nH]1)N(C=O)[C@H](CNc1ccc(C(=O)N[C@@H](CCC(=O)O)C(=O)O)cc1)CN2
inactive

Identify the outcome logged in this assay for the compound shown: c1cc(CN2CCCNCCNCCCNCC2)ccc1CN1CCCNCCNCCCNCC1
inactive

Identify the outcome logged in this assay for the compound shown: CCOC(=O)N1CCN([N+]([O-])=NOc2ccc([N+](=O)[O-])cc2[N+](=O)[O-])CC1
active

This collection of values is drawn from PubChem BioAssay (NCATS).
